MEASURED_TARGET: T1, human Claudin18.2 (human)
T1 construct: also called CLDN18.2
PROTOCOL_TEXT: cell ELISA, Claudin18.2-expressing HEK293T cells
Entries and their EC50
Form entry: value (nM) — number only.

1. 425C6D3 (antibody, V domains shown, mouse hybridoma mAb) VH: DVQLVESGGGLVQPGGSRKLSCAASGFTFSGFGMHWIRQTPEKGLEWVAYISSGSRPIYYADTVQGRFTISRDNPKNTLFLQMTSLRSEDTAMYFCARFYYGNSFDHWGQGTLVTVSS VL: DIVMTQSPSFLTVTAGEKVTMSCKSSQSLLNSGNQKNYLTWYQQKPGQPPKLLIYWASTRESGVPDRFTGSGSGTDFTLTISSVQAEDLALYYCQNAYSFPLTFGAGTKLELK : 1.92
2. 240A8E7 (antibody, V domains shown, mouse hybridoma mAb) VH: QAYLQQSGAELVRSGASVKMSCKASGYTFTNYNIHWVKQTPGQGLEWIGYIYPGNGDNYYNQKFKGKATLTADTSSSTAYMQISSLTSEDSAVYFCARDYYGNSFAYWGQGTLVTVSA VL: DVVMTQSPSSLTVTAGEKVTMNCKSSQSLLNSGNQKNYLTWYQQKPGQPPKMLIYWASTRESGVPDRFTGSGSGTDFTLTISSVQAEDLAIYYCQNDYYYPFTFGAGTKLELK : 0.646

# ---- query binder ----
Recorded EC50 (binder 419A10D4 (antibody, V domains shown, mouse hybridoma mAb) VH: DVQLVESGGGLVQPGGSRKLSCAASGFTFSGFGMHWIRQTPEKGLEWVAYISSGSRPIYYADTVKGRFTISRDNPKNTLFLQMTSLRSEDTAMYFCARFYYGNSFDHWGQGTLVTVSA VL: DIVMTQSPSFLTVTAGEKVTMSCKSSQSLLNSGNQRNYLTWYQQKPGQPPKLLIYWASTRESGVPDRFTGSGSGTDFTLTVSSVQAEDLALYYCQNAYSFPLTFGAGTKLELK ): 2.33
